# System: SK-MEL-28
# assay: NCI tumour cell line growth inhibition, 48 h
Active and inactive are the calls of the source. No stated cut-off is given here; in the data, active = GI50 up to about 1.1 µM and inactive = higher.
outcome_measure: GI50

compound	GI50
COC(=O)c1cccc2cccc(C(=O)Nc3ccc(Cl)cc3)c12	> 100 µM (inactive)
Cc1ccc(S(=O)(=O)c2ccc([N+](=O)[O-])o2)cc1	1.98 µM (inactive)
CN(C)c1c(C2CC(O)C(CO)O2)c(=O)c1=O (configuration not stated)	> 100 µM (inactive)

Problem: Requested field: GI50. Item: Cc1cc(=O)c2c(O)cc3c(c2o1)CC=C(COC1OC(COC2OC(CO)C(O)C(O)C2O)C(O)C(O)C1O)CO3 (configuration not stated)
Result: > 100 µM (inactive)

Problem: What about this compound? `CCCCCCCCCCCCc1ccc(S(=O)(=O)O)cc1`
Result: > 100 µM (inactive)
